Tested on: A549
PROCEDURE_SUMMARY: NCI tumour cell line growth inhibition, 48 h
The source made the active and inactive calls. No stated cut-off is given here; in the data, active = GI50 up to about 1.1 µM and inactive = higher.
Outcome (select one): Y (active), N (inactive)

The following compounds have reported results that may help.
CN(C)CCn1c(=O)c2ccc3c4c(nn3CCN(C)C)c3cc(N)ccc3n(c1=O)c24 :: Y
CC(C)=CCC/C(C)=C/Cc1c(O)c(C)cc2c1[nH]c1cc(O)ccc12 :: N
CCCCCCCC(=O)OCC(C[As](=O)(O)O)OC(=O)CCCCCCC (stereo unspecified) :: N
COc1ccc(N(C)S(=O)(=O)c2ccccc2)cc1 :: N
CNC(=O)OC(COC)CN1CCN(c2ccccc2C)CC1 (stereo unspecified) :: N

Q. In this assay, the call recorded for `O=C1C(c2ccc([N+](=O)[O-])cc2)=C(Cl)C(=O)c2c(O)cccc21` was what?
A. N

Q. In this assay, the call recorded for `Nc1ncnc2c1ccn2COC(CO)CO` was what?
A. N

Q. In this assay, the call recorded for Cc1ccc(S(=O)(=O)C2=Cc3ccccc3C2(O)c2ccccc2)cc1 (stereo unspecified) was what?
A. N

Q. In this assay, the call recorded for `Cc1ccc2c(c1)[n+]([O-])c(N)n[n+]2[O-]` was what?
A. N

Q. In this assay, the call recorded for `CCOC(=O)c1nc2ccccc2nc1Oc1ccc(OC)cc1` was what?
A. N

Q. In this assay, the call recorded for CC1=NOC(=O)C1/N=N/c1ccc(Br)c(C)c1 (stereo unspecified) was what?
A. N
